# Assay Explanation: Tanguay_ZF_120hpf_AXIS_legacy: (Legacy) Oregon State University Tanguay Lab 120 Hour Post-fertilization zebrafish Assay for Body Axis Malformation (AID 2283635)
Results filed as inconclusive are left out. The source made the active and inactive calls. How the source made its calls: active means hit-call score of the fitted dose curve at least 0.9, where 1 is the maximum; inconclusive means response in the unintended direction; inactive means score below 0.9.
Measure: outcome

>>> result("COC(=O)NC(=S)Nc1ccccc1NC(=S)NC(=O)OC")
"inactive"
>>> result("N#Cc1c[nH]cc1-c1cccc2c1OC(F)(F)O2")
"inactive"
>>> result("Cc1nc(N(C)C)nc(OC(=O)N(C)C)c1C")
"inactive"

###

# Read-out: Lipase C (LIPC), LIPC (gene 3990)
# Assay Explanation: LTEA_HepaRG_LIPC: Life Technologies and Expression Analysis (LTEA) Assay for Lipase C (LIPC) using HepaRG (AID 2283514)
# Condition Label: mRNA level, 48 h; actives raise or lower the signal
Activity calls are given as the source filed them. How the source made its calls: active means hit-call score of the fitted dose curve at least 0.9, where 1 is the maximum; inactive means score below 0.9.
Valid outcomes are listed here; reply with one: t for active, f for inactive

// below: answered compounds
>>> discrete_label("CNC(=O)N(C)c1nnc(C(C)(C)C)s1")
"f"
>>> discrete_label("Cc1c(COC(=O)[C@@H]2[C@H](/C=C(\\Cl)C(F)(F)F)C2(C)C)cccc1-c1ccccc1")
"f"
>>> discrete_label("CCSC(=O)N1CCCCCC1")
"f"
>>> discrete_label("CC1(C)C(C=C(Cl)Cl)C1C(=O)OC(C#N)c1cccc(Oc2ccccc2)c1 (stereo not given)")
"f"
>>> discrete_label("N#CN=C1SCCN1Cc1ccc(Cl)nc1")
"f"
>>> discrete_label("O=C(O)c1c(Cl)ccc2cc(Cl)cnc12")
"f"
>>> discrete_label("CCCCC(O)(Cn1cncn1)c1ccc(Cl)cc1Cl (stereo not given)")
"t"
>>> discrete_label("CCNC(=O)NC(=O)C(C#N)=NOC")
"t"

Query: Dear colleague, could you share the recorded outcome for `OC(c1ccc(Cl)cc1)(c1ccc(Cl)cc1)C(Cl)(Cl)Cl` when you have a moment?
Result: t

Query: Status in this test for CC(C)(C)C(=O)C(Oc1ccc(Cl)cc1)n1cncn1 (stereo not given) ?
Result: f

Query: Identify the outcome logged in this assay for the compound shown: `COc1ccc(-c2ccccc2)cc1NNC(=O)OC(C)C`
Result: f

Query: Look up the recorded call for `Cn1c(-c2ccccc2)cc(-c2ccccc2)[n+]1C` in this test.
Result: t

Query: I'd appreciate the recorded outcome for CC1(C)CCC(=Cc2ccc(Cl)cc2)C1(O)Cn1cncn1 (stereo not given) from this test.
Result: f

Query: For this compound, state the assay outcome: `CSC(=O)c1c(C(F)F)nc(C(F)(F)F)c(C(=O)SC)c1CC(C)C`
Result: t

Query: Hello, I am checking results. What call was entered for CCCC(=NOCC)C1=C(O)CC(CC(C)SCC)CC1=O (stereo not given) ?
Result: f

Query: Would you mind telling me which call this test gave `COC(=O)NS(=O)(=O)c1ccc(N)cc1` ?
Result: f

Query: Can you look up the reported call for `COc1cc(OC)nc(NC(=O)NS(=O)(=O)c2ncccc2OCC(F)(F)F)n1` for me?
Result: f

Query: Hello, I am checking results. What call was entered for CCCCC(C#N)(Cn1cncn1)c1ccc(Cl)cc1 (stereo not given) ?
Result: f

Query: Would you mind telling me which call this test gave `O=c1n(Cl)c(=O)n(Cl)c(=O)n1Cl` ?
Result: f

Query: What outcome does the record of this test show for `Cc1cc(C)nc(Nc2ccccc2)n1` ?
Result: f

Query: I would be grateful if you could indicate the recorded call for `CC(C)Nc1nc(Cl)nc(NC(C)C)n1` .
Result: f

Query: Test call for this compound, please: CC1(C)C(C(=O)OC(C#N)c2cccc(Oc3ccccc3)c2)C1(C)C (stereo not given)
Result: f

Query: Fill in: this test's call for `CS(=O)(=O)c1ccc(C(=O)C2C(=O)CCCC2=O)c([N+](=O)[O-])c1` is ___
Result: f

Query: Can you look up the reported call for CCOc1cc(C(C)(C)C)ccc1C1COC(c2c(F)cccc2F)=N1 (stereo not given) for me?
Result: t

Source: PubChem BioAssay (EPA / NIEHS)
